All figures here come from patent US20250019425A1.

# SYSTEM UNDER TEST: T1, biotinylated TTR F87M L110M monomer (Avi_mTTR in vivo biotinylation construct) (human, biotin on the Avi tag (in vivo biotinylation by BirA))
# T1 construct: also called Biotinyl-Monomer; biotinyl-mTTR
# ASSAY PROTOCOL: indirect ELISA, biotinylated mTTR on Neutravidin plate, anti-mouse-HRP
Readings of EC50 for the listed binders
Field format: number, assumed nM, no unit text.

// worked examples, EC50 included
Query block: Given murine anti-human monomer TTR antibody Ab3 (antibody, V domains shown, Murine monoclonal antibody; entries are called Mouse Ab3 HC / LC but hold only the variable domains; also called mAb 3; Antibody 3) VH: EVQLQQSGPVLVKPGASVKMSCKASGYTFTDYYMNWVKQSHGKSLEWIGVINPYNGGTSYNQKFKGKATLTVDKSSSTAYMELNSLTSEDSAVYYCARDLTGTGGAMDYWGQGTSVTVSS VL: QIVLTQSPAILSASPGEKVTMTCRASSSVSYMHWYQQKPGSSPKPWIYATSNLASGVPARFSGSGSGTSYSLTISRVEAEDAATYYCQQWSSNPLTFGAGTKLELK , state its recorded EC50.
Result block: 14.1

Query block: Now consider murine anti-human monomer TTR antibody Ab5 (antibody, V domains shown, Murine monoclonal antibody; entries are called Mouse Ab5 HC / LC but hold only the variable domains; also called mAb 5; Antibody 5) VH: EVQLQQSGAELVKPGASVKLSCTASGFNIKDYYMHWVKQRTEQGLEWIGRIDPEDGETKYAPKFQGKATITADTSSNTAYLQLSSLTSEDTAVYYCALLWLRRGRGYWGQGTTLTVSS VL: DIQMTQSPSSLSASLGERVSLTCRASQEISGYLSWLQQKPDGTIKRLIYAASTLDSGVPKRFSGSRSGSDYSLTISSLESEDFADYYCLQYASYPPTFGAGTKLELK and answer again.
Result block: 0.2

Query block: Also check murine anti-human monomer TTR antibody Ab6 (antibody, V domains shown, Murine monoclonal antibody; entries are called Mouse Ab6 HC / LC but hold only the variable domains; also called Antibody 6) VH: QVQLQQSGAELMKPGASVKLSCKATGYTFTGYWIEWVKQRPGHGLEWIGEILPGSGSTNYNEKFKGKATFTADTSSNTAYMQLSSLTTEDSAIYYCARLRGSSYPWYFDYWGQGTTLTVSS VL: DIQMTQSPASLSVSVGETVTITCRASENIYSNLAWYQQKQGKSPQLLVYAATNLADGVPSRFSGSGSGTQYSLKINSLQSEDFGSYYCQHFWGTPYTFGGGTKLEIK
Result block: 0.45

Here is another binder to look at.
Query block: Request the reported EC50 associated with murine anti-human monomer TTR antibody Ab2 (antibody, V domains shown, Murine monoclonal antibody; also called mAb 2; Antibody 2) VH: EVKLEQSGGGLVQPGGSMKLSCVASGFTFSNYWMNWVRQSPEKGLEWVAQIRLKSDNYATHYAESVKGRFTISRDDSKSSVYLQMNNLRAEDTGIYYCTGVFTYWGQGTLVTVSA VL: NIVLTQSPASLAVSLGQRATISCRTSESVDSYGNSFMHWYQQKPGQPPKLLIYLASNLESGVPARFSGSGSRTDFTLTIDPVEADDAATYYCQQNNEDPMYTFGGGTKLEIK
Result block: 1.45
